tested on: MDA-MB-468 breast; assay: NCI tumour cell line growth inhibition, 48 h; in the data active = GI50 below about 0.43 µM; inactive = the rest
Response enum: TRUE = active, FALSE = inactive

Consider the following illustrative entries.
[
  {
    "smilesCode": "CC(=O)c1cccc(Nc2nc3ccc(Cl)cc3c3[nH]c4ccccc4c23)c1",
    "assignedCategory": "FALSE"
  },
  {
    "smilesCode": "Oc1ccccc1CNCC12CC3CC(CC(C3)C1)C2",
    "assignedCategory": "FALSE"
  },
  {
    "smilesCode": "COc1cc(NC(=O)CSc2nc3ccc(C)cc3c(=O)n2Cc2ccccc2)cc(OC)c1OC",
    "assignedCategory": "FALSE"
  },
  {
    "smilesCode": "COc1cccc(OCCCN)c1-c1cc(Nc2cnc(C#N)cn2)n[nH]1",
    "assignedCategory": "TRUE"
  },
  {
    "smilesCode": "COc1ccc(NC(=O)COCCOCCNC[C@@H]2C(=O)O[C@H]3[C@H]2CC/C(COC(=O)OC/C2=C/CC[C@@]4(C)O[C@H]4[C@H]4OC(=O)[C@@H](CN(C)C)[C@@H]4CC2)=C\\CC[C@@]2(C)O[C@@H]32)c(O)c1C(N)=O",
    "assignedCategory": "FALSE"
  }
]

Given COc1cc2c(cc1OCCCCCOc1ccc(-n3c(C)nc4ccccc4c3=O)cc1)N=C[C@@H]1CCCN1C2=O , state the outcome it received in this test.
TRUE

Given CCC[CH2][Sn]([CH2]CCC)([CH2]CCC)[O]C(=O)c1ccc(Cl)cc1Cl , state the outcome it received in this test.
TRUE

Given Cc1ccc(C(=O)C(c2c[nH]c3ccccc23)c2c[nH]c3ccccc23)cc1 , state the outcome it received in this test.
FALSE

Given C=C1C(=O)O[C@H]2[C@H]1CCC(/C=N/c1ncc(Br)cc1N)=C\CC[C@@]1(C)O[C@@H]21 , state the outcome it received in this test.
FALSE

Given COc1ccc(C(C)=C(c2ccc(OCCCN(C)C)cc2)c2ccc(OCCCN(C)C)cc2)cc1 , state the outcome it received in this test.
FALSE

Given COc1ccc(/C=C(\C#N)n2nnc3ccccc32)cc1 , state the outcome it received in this test.
TRUE

====

system: MDA-MB-468 breast; test: NCI tumour cell line growth inhibition, 48 h
metric: TGI (µM)
Give your result in µM as a bare value.

Study these solved cases before continuing.
[
  {
    "compound": "COc1cccc2c1C(=O)c1c(O)c3c(c(O)c1C2=O)C[C@@](O)(C(=O)CO)C[C@@H]3O[C@H]1C[C@H](N)[C@@H](O)[C@H](C)O1",
    "metric": "TGI",
    "measuredValue": 0.304
  },
  {
    "compound": "O=C1C=CC[C@H](/C=C/c2ccccc2)O1",
    "metric": "TGI",
    "measuredValue": 11.5
  },
  {
    "compound": "COc1cc(/C=C/C(=O)c2c(C)nc3ccccc3c2/C=C/c2ccc(C)cc2)cc(OC)c1OC",
    "metric": "TGI",
    "measuredValue": 4.26
  },
  {
    "compound": "CCN1Cc2c(ccc(F)c2C#N)O[C@@H](C)CNC(=O)c2c(N)nn3ccc1nc23",
    "metric": "TGI",
    "measuredValue": 34.3
  },
  {
    "compound": "Cc1cc(NCc2cc(Nc3ccnc4cc(Cl)ccc34)ccc2F)nc(N2CCN(C)CC2)n1",
    "metric": "TGI",
    "measuredValue": 3.52
  }
]

Answer with the recorded TGI for the compound listed here: CC(=O)c1cccc(Nc2nc3ccc(Cl)cc3c3[nH]c4ccccc4c23)c1
96.8

Answer with the recorded TGI for the compound listed here: CN(C)CC1C(=O)O[C@H]2[C@H]1CC/C(COC(=O)c1cc3ccccc3[nH]1)=C\CC[C@@]1(C)O[C@@H]21 (some centres not stated)
3.14
